# Tested on: A549
# test: Euclidean distance of Cell Painting phenotypic profile (signed KS, 77 features) to DMSO centroid (dimensionless distance); 5 or 10 uM (library dependent); higher = stronger phenotypic change vs DMSO (phenoactivity)
# stated conditions: 48 h
Where a name gives a salt, the structure may show the parent alone.
Consider the following partition of reported Euclidean distance into named classes: bucket 1: < 0.8; bucket 2: ≥ 0.8 and < 1; bucket 3: ≥ 1

Which bin should I file CN(C)C(=O)COC(=O)Cc1ccc(OC(=O)c2ccc(NC(=N)N)cc2)cc1 [Camostat Mesilate] under?
bucket 1

Which bin should I file C[C@]12CC[C@@H]3c4ccc(OC(=O)c5ccccc5)cc4CC[C@H]3[C@@H]1CC[C@@H]2O [Estradiol Benzoate] under?
bucket 2

Which bin should I file CO[C@H]1O[C@@H]2O[C@@]3(C)CC[C@H]4[C@H](C)CC[C@@H]([C@H]1C)[C@@]24OO3 under?
bucket 3

Which bin should I file COCCCOc1ccnc(C[S+]([O-])c2nc3ccccc3[nH]2)c1C (stereo not given) [Rebeprazole sodium] under?
bucket 1

Which bin should I file CCc1cccc2c3c([nH]c12)C(CC)(CC(=O)O)OCC3 (stereo not given) under?
bucket 2

Which bin should I file Oc1ncnc2[nH]ncc12 under?
bucket 2

Which bin should I file C1CNCCN1 under?
bucket 3

Which bin should I file NS(=O)(=O)c1cc2c(cc1Cl)N=CNS2(=O)=O [Chlorothiazide] under?
bucket 2

Which bin should I file COc1cc(C2Oc3cc([C@H]4Oc5cc(O)cc(O)c5C(=O)[C@@H]4O)ccc3OC2CO)ccc1O (stereo not given in full) under?
bucket 3

Which bin should I file CCn1c(N)c(C(=O)NC)c(=O)c2ccc(C#CC(C)(O)COC)nc21 (stereo not given) under?
bucket 1

Which bin should I file COc1cc(NC(=O)c2ccc(-c3ccc(Cl)cc3)o2)cc(OC)c1 under?
bucket 3

Which bin should I file O=C(/C=C\n1cnc(-c2cc(C(F)(F)F)cc(C(F)(F)F)c2)n1)NNc1cnccn1 under?
bucket 3

Which bin should I file COC(=O)C1=C(C)NC(C)=C(C(=O)OC(C)C)C1c1cccc2nonc12 (stereo not given) under?
bucket 3

Which bin should I file C#Cc1cccc(Nc2ncnc3cc4c(cc23)OCCOCCOCCO4)c1 under?
bucket 3

Which bin should I file CCC[C@H](N[C@H]1CCc2cc(F)cc(F)c2C1)C(=O)Nc1cn(C(C)(C)CNCC(C)(C)C)cn1 under?
bucket 3

Which bin should I file C[C@H](O)C(=O)Nc1c(I)c(C(=O)NC(CO)CO)c(I)c(C(=O)NC(CO)CO)c1I under?
bucket 1

Which bin should I file COC(=O)c1cc(OC)c2c(c1-c1c(CO)cc(OC)c3c1OCO3)OCO2 under?
bucket 1

Which bin should I file c1cc(CN2CCCNCCNCCCNCC2)ccc1CN1CCCNCCNCCCNCC1 under?
bucket 3

Which bin should I file CC(C)(C)NS(=O)(=O)c1cncc(-c2cc(F)c3nc(N)nn3c2)c1 under?
bucket 2

Which bin should I file CC1(C)[C@H](C(=O)O)N2C(=O)C[C@H]2S1(=O)=O [Sulbactam sodium] under?
bucket 1

Which bin should I file C/C(=C\C(=O)OCCCCCCCCC(=O)O)C[C@@H]1OC[C@H](C[C@@H]2O[C@H]2[C@@H](C)[C@H](C)O)[C@@H](O)[C@H]1O [Mupirocin calcium] under?
bucket 2

Which bin should I file COC(=O)N(C)c1c(N)nc(-c2nn(Cc3ccccc3F)c3ncccc23)nc1N under?
bucket 1

Which bin should I file Cc1cc(N2CCN([C@@H]3CN[C@H](C(=O)N4CCSC4)C3)CC2)n(-c2ccccc2)n1 [Teneligliptin hydrobromide] under?
bucket 3

Which bin should I file CCc1ccc(N(CC(C)C)S(=O)(=O)c2ccc(OCC3CCOCC3)c(CO)c2)cc1 under?
bucket 3

Which bin should I file CN(C)C(=N)NC(=N)N [Metformin HCl] under?
bucket 2

Which bin should I file Cc1cc(C(=O)NOCCO)c(Nc2ccc(I)cc2F)n(C)c1=O under?
bucket 3

Which bin should I file CN1[C@@H]2CC[C@H]1C[C@@H](OC(=O)c1c[nH]c3ccccc13)C2 under?
bucket 3

Which bin should I file CC(=O)[C@H]1CC[C@H]2[C@@H]3CC=C4C[C@@H](O)CC[C@]4(C)[C@H]3CC[C@]12C under?
bucket 3
